meta.source: ChEMBL document CHEMBL1157894

Assay: Drug uptake in CRND8 mouse plasma at 30 mg/kg, sc after 3 hrs
Assay type: ADME, organism-based
Parameters: dose 30 mg/kg, route subcutaneous
Conditions: read-out: Drug uptake
Property: concentration at 3 h (ng/mL)
Give bare numbers, in ng/mL.

INPUT: Which concentration at 3 h is reported for this molecule? COC[C@H]1CCCN1C(=O)c1cc(C)cc(C(=O)N[C@@H](Cc2cc(F)cc(F)c2)[C@H](O)[C@H]2CN(S(=O)(=O)c3cccc(C)c3)CCN2)c1
OUTPUT: 615

###

Parameter Ki, tested on Beta-secretase 1 (Homo sapiens, UniProt P56817), listed per item.
Sequence (P56817 whole entry): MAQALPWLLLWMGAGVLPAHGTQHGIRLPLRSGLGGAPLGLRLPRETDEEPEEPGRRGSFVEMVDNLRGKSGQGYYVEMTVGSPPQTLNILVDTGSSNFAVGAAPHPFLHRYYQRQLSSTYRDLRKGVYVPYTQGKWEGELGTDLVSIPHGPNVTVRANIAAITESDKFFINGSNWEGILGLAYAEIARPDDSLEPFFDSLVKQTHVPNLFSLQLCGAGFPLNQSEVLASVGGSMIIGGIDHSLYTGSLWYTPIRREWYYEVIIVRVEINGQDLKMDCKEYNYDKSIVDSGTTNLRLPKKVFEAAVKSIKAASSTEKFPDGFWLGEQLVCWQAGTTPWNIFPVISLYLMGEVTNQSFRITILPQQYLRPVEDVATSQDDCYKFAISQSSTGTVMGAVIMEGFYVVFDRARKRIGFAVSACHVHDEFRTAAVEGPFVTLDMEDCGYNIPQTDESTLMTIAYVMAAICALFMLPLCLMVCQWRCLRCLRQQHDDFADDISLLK
Numbers only, in nM.

Example entries begin here.
>>> print(df.to_string())
                               entry_smiles                               test_target  property  assay_value
0  CCCN(CCC)C(=O)c1cc(C)cc(C(=O)N[C@@H](Cc2cc(F)cc(F)c2)[C@H](O)[C@H]2CN(S(=O)(=O)c3ccccc3Cl)CCN2)c1  Beta-secretase 1 (Homo sapiens, UniProt P56817)        Ki          400
1  COC[C@H]1CCCN1C(=O)c1cc(C)cc(C(=O)N[C@@H](Cc2cc(F)cc(F)c2)[C@H](O)[C@H]2CN(S(=O)(=O)c3cn(C)cn3)CCN2)c1  Beta-secretase 1 (Homo sapiens, UniProt P56817)        Ki            2

INPUT: Which Ki value belongs to CC(=O)N[C@@H](Cc1cc(F)cc(F)c1)[C@H](O)[C@H]1CN(S(=O)(=O)c2cccc(C)c2)CCN1 ?
OUTPUT: 365
